These data points were gathered from BindingDB's records for patent US11566007.

measurement_target: GTPase NRas [G12C] (Homo sapiens, UniProt P01111, G12C)
Sequence (P01111 whole entry G12C): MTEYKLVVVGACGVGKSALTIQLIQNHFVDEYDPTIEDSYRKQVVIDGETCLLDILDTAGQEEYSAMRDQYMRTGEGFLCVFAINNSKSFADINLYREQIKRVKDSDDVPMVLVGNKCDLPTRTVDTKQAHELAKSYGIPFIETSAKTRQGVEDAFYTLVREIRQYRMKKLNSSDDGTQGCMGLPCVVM
protocol_notes: Biochemical Assay
endpoint_label: IC50

Here's what some known entries look like.
compound	measurement_target	val
CCn1c(-c2cccnc2COC)c2c3cc(ccc31)-c1cc(O)cc(c1)C[C@H](NC(=O)[C@H](C(C)C)N(C)C(=O)[C@H]1CCN(C(=O)C#CCN3CCOCC3)C1)C(=O)N1CCC[C@H](N1)C(=O)OCC(C)(C)C2	GTPase NRas [G12C] (Homo sapiens, UniProt P01111, G12C)	< 10 nM
CCn1c(-c2ccccc2CCOC)c2c3cc(ccc31)-c1cc(O)cc(c1)C[C@H](NC(=O)[C@H](C(C)C)N(C)C(=O)[C@H]1CCN(C(=O)C#CCN(C)C)C1)C(=O)N1CCC[C@H](N1)C(=O)OCC(C)(C)C2	GTPase NRas [G12C] (Homo sapiens, UniProt P01111, G12C)	< 10 nM
CCn1c(-c2cccnc2COC)c2c3cc(ccc31)-c1cc(O)cc(c1)C[C@H](NC(=O)[C@H](C(C)C)N(C)C(=O)[C@H]1CCN(C(=O)C#CCN(C)C)C1)C(=O)N1CCC[C@H](N1)C(=O)OCC(C)(C)C2	GTPase NRas [G12C] (Homo sapiens, UniProt P01111, G12C)	< 10 nM
CCn1c(-c2cnccc2COC)c2c3cc(ccc31)-c1cc(O)cc(c1)C[C@H](NC(=O)[C@H](C(C)C)N(C)C(=O)[C@H]1CCN(C(=O)C#CCN(C)C)C1)C(=O)N1CCC[C@H](N1)C(=O)OCC(C)(C)C2	GTPase NRas [G12C] (Homo sapiens, UniProt P01111, G12C)	< 10 nM

Continue with the compound presented below.
QUERY: Enter recorded IC50 with GTPase NRas [G12C] (Homo sapiens, UniProt P01111, G12C) for C=CC(=O)N1CC[C@H](C(=O)N(C)[C@H](C(=O)NC2C[C@@H]3CN(CCO3)c3ccc4c(c3)c(c(-c3cccnc3COC)n4CC)CC(C)(C)COC(=O)[C@@H]3CCCN(N3)C2=O)C(C)C)C1 (stereo not given in full) here.
RESULT: > 10000 nM
